- target.or.test.system: huPD-L1 (Homo sapiens, UniProt Q9NZQ7)
- Sequence (Q9NZQ7 19-290): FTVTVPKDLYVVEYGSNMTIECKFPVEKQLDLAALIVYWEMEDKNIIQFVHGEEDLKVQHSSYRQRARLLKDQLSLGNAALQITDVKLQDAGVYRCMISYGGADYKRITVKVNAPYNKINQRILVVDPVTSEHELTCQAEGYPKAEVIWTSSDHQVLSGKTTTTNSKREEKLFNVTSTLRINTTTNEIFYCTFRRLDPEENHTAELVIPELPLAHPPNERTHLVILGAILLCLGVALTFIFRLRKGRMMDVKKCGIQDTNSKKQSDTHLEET
- assay.name: Flow binding to CHO cells stably expressing PD-L1
- Design: huCTLA4 and huPD-L1, full-length mammalian surface expression constructs were generated; expressed in transfected cells; host or cells: CHO cells, lentiviral transduction, sorted to >98% purity
- study.conditions: Table E20; CHO cells stably expressing PD-L1; 33.3 nM
- Procedure: Binding of selected immunomodulatory fusion proteins to cognate binding partners was assessed. […] Cells were sorted in a Bio-Rad S3 Cell Sorter (Bio-Rad Corp., USA) to >98% purity. […] For staining and analysis by flow cytometry, 100,000 cells of appropriate transfected cells were plated in 96-well round bottom plates. […] Cells were then washed twice with 150 μL/well stain buffer, fixed in 2% formaldehyde/PBS, and analyzed on Intellicyt flow cytometer (Intellicyt Corp., USA). […]
Catalogue of molecules with associated PD-L1 MFI at 33.3 nM
Form field (numeric): enter value without unit.

molecule	PD-L1 MFI at 33.3 nM
H18Y/M47L/V68M/A71G (protein) VIHVTKEVKEVATLSCGYNVSVEELAQTRIYWQKEKKMVLTMMSGDLNIWPEYKNRTIFDITNNLSIMILGLRPSDEGTYECVVLKYEKDAFKREHLAEVTLSVKAD	28478

Which measured PD-L1 MFI at 33.3 nM value corresponds to E35D/M47L/V68M/A71G (protein) VIHVTKEVKEVATLSCGHNVSVEELAQTRIYWQKDKKMVLTMMSGDLNIWPEYKNRTIFDITNNLSIMILGLRPSDEGTYECVVLKYEKDAFKREHLAEVTLSVKAD ? 27872

Which measured PD-L1 MFI at 33.3 nM value corresponds to H18Y/A26E/M47L/D90G (protein) VIHVTKEVKEVATLSCGYNVSVEELEQTRIYWQKEKKMVLTMMSGDLNIWPEYKNRTIFDITNNLSIVILALRPSDEGTYECVVLKYEKGAFKREHLAEVTLSVKAD ? 8933

Which measured PD-L1 MFI at 33.3 nM value corresponds to A26E/M47L/V68M/A71G (protein) VIHVTKEVKEVATLSCGHNVSVEELEQTRIYWQKEKKMVLTMMSGDLNIWPEYKNRTIFDITNNLSIMILGLRPSDEGTYECVVLKYEKDAFKREHLAEVTLSVKAD ? 1667

Which measured PD-L1 MFI at 33.3 nM value corresponds to E35D/M47L/V68M/D90G (protein) VIHVTKEVKEVATLSCGHNVSVEELAQTRIYWQKDKKMVLTMMSGDLNIWPEYKNRTIFDITNNLSIMILALRPSDEGTYECVVLKYEKGAFKREHLAEVTLSVKAD ? 23482

Which measured PD-L1 MFI at 33.3 nM value corresponds to A26E/E35D/V68M/D90G (protein) VIHVTKEVKEVATLSCGHNVSVEELEQTRIYWQKDKKMVLTMMSGDMNIWPEYKNRTIFDITNNLSIMILALRPSDEGTYECVVLKYEKGAFKREHLAEVTLSVKAD ? 6987
